- SYSTEM_TESTED: T1, GLP-1R H212A (Homo sapiens)
- T1 chain: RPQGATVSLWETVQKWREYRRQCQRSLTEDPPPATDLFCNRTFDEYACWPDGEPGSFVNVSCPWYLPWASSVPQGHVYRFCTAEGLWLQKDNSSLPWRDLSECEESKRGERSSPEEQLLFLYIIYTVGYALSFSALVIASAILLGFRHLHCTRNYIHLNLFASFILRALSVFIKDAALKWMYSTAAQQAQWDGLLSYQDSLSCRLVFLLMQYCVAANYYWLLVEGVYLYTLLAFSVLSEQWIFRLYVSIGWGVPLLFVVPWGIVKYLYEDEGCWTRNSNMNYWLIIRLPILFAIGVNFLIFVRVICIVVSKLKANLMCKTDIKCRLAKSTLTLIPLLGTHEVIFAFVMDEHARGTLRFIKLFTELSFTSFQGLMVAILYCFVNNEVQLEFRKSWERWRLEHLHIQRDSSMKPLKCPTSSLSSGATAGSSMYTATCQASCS
No end group written: not given here.
Property: IC50; scope: individual binders
# value in nM; strip the unit string

>>> measured_result("HAEGTFTSDVSSYLEGQAAKEFIAWLVKGR (not fully specified (C-terminus)) [glucagon-like peptide-1]")
1.23

Kindly consider the entry below.
response.value for HSQGTFTSDYSKYLDSRRAQDFVQWLMNTKRNRNNIA [oxyntomodulin] (field: IC50) = 12.9
